# protocol.notes: Pharmacokinetics assay in rats
# Format: in vivo, male SD rats
# test.conditions: rat, plasma; intravenous, 2 mg/kg, male SD rats
readout.kind: C0 (ng/mL)
Answers are plain numbers, in ng/mL.

Lookup: # return recorded C0 for input `O=C1CCc2cc(OCCCN3CCC(c4noc5cc(F)ccc45)CC3)cc3c2N1CC3`
Found: 10800

---

# protocol.notes: Pharmacokinetics assay in rats
# Type: in vivo, male SD rats
# test.conditions: male, SD, rat, plasma, oral, 10 mg/kg, oral 10 mg/kg vs intravenous 2 mg/kg, male SD rats
readout.kind: bioavailability

Lookup: # return recorded bioavailability for input O=C1CCc2cc(OCCCN3CCC(c4noc5cc(F)ccc45)CC3)cc3c2N1CC3 [NH300094]
Found: ~87.6%

---

# protocol.notes: Pharmacokinetics assay in rats
# Format: in vivo, male SD rats
# test.conditions: rat, plasma; intravenous, 2 mg/kg, male SD rats
readout.kind: half-life (h)
Numbers only, in h.

Lookup: # return recorded half-life for input `O=C1CCc2cc(OCCCN3CCC(c4noc5cc(F)ccc45)CC3)cc3c2N1CC3`
Found: 1.73

---

# protocol.notes: Pharmacokinetics assay in rats
# Type: in vivo, male SD rats
# test.conditions: rat, plasma; intravenous, 2 mg/kg, male SD rats
# Experimental: Six male SD rats (7 weeks of age) were randomly divided into two groups with three rats per group. Animals were fasted overnight and had free access to water before dosing. For the intravenous group, male SD rats were administered NH300094 by single intravenous bolus administration at a dose of 2 mg/kg. […] The pharmacokinetic parameters were calculated using WinNonlin software (Version 6.3) according to non-compartmental model.
readout.kind: clearance (mL/min/kg)
Give bare numbers, in mL/min/kg.

Lookup: # return recorded clearance for input `O=C1CCc2cc(OCCCN3CCC(c4noc5cc(F)ccc45)CC3)cc3c2N1CC3`
Found: 9.91

---

# target: D3 receptor (Homo sapiens, UniProt P35462)
# Sequence (P35462 whole entry): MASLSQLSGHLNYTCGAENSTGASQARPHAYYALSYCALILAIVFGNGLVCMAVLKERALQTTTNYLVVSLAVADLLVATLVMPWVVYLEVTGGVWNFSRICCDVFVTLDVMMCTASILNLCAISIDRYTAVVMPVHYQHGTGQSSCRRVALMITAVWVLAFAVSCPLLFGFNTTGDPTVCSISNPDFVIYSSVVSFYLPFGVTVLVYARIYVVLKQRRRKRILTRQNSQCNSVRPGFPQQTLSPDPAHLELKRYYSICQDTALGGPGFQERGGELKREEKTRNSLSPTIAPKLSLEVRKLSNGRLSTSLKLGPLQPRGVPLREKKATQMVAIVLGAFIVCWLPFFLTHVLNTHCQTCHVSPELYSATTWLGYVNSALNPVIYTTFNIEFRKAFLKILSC
# protocol.notes: D3 receptor functional assay (Nano-Glo luciferase assay system)
# test.conditions: antagonist activity, CHO-K1/D3 cells, read-out: D3R, IC50
readout.kind: IC50 (nM)
Numbers only, in nM.

Lookup: # return recorded IC50 for input `O=C1CCc2cc(OCCCN3CCC(c4noc5cc(F)ccc45)CC3)cc3c2N1CC3`
Found: 31.5

---

# protocol.notes: in vivo
# test.conditions: male, ICR, mouse, po
readout.kind: ED50 (mg/kg)
Answers are plain numbers, in mg/kg.

Lookup: # return recorded ED50 for input `O=C1CCc2cc(OCCCN3CCC(c4noc5cc(F)ccc45)CC3)cc3c2N1CC3`
Found: 6.73

---

# target: 5-HT2A receptor (Homo sapiens)
# Sequence (P28223 whole entry): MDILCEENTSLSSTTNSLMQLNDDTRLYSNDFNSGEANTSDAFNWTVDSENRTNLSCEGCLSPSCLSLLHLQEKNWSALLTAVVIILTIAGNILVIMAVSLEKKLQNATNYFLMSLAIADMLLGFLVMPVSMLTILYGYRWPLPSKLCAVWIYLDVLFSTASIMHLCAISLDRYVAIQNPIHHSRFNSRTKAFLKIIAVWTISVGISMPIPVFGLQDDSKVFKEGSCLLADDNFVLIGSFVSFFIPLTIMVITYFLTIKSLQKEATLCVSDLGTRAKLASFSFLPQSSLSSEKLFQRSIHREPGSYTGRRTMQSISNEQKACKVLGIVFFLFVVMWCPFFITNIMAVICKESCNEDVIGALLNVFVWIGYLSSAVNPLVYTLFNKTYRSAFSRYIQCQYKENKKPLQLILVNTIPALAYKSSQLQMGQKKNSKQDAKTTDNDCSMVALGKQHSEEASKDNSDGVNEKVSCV
# protocol.notes: 5-HT2A receptor functional assay (calcium flow, FLIPR, antagonist)
# Format: cell-based
# test.conditions: antagonist activity, calcium flow FLIPR, CHO-K1/5-HT2A cells; read-out: 5HT2AR, IC50
readout.kind: IC50 (nM)
Numbers only, in nM.

Lookup: # return recorded IC50 for input O=C1CCc2cc(OCCCN3CCC(c4noc5cc(F)ccc45)CC3)cc3c2N1CC3 [NH300094]
Found: 0.47

---

# target: 5-HT1B receptor (Homo sapiens)
# Sequence (P28222 whole entry): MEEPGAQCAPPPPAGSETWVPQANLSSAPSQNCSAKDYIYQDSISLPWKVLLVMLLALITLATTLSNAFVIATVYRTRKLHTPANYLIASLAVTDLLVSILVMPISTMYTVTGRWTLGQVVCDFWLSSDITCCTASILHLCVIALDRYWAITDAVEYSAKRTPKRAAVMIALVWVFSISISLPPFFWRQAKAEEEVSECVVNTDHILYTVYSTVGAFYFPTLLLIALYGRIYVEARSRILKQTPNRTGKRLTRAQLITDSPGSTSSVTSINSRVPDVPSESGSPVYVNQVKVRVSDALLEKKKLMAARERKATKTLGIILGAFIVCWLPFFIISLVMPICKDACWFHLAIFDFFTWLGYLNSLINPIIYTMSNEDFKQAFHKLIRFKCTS
# protocol.notes: 5-HT1B receptor functional assay (cAMP assay, inverse agonist)
# test.conditions: inverse agonist activity, CHO-K1/5-HT1B cells, read-out: 5HT1BR, EC50
readout.kind: EC50 (µM)
One number for each entry, in µM.

* O=C1CCc2cc(OCCCN3CCC(c4noc5cc(F)ccc45)CC3)cc3c2N1CC3 [NH300094] | 0.0284

Let us move to another entry and its EC50.
Lookup: # return recorded EC50 for input CSc1ccc2c(c1)C(N1CCN(C)CC1)Cc1ccccc1S2 (centres unmarked) [Methiothepin, reference compound]
Found: 0.0223

---

# target: D2S receptor (Homo sapiens)
# Sequence (P14416 1-414 isoform P14416-2): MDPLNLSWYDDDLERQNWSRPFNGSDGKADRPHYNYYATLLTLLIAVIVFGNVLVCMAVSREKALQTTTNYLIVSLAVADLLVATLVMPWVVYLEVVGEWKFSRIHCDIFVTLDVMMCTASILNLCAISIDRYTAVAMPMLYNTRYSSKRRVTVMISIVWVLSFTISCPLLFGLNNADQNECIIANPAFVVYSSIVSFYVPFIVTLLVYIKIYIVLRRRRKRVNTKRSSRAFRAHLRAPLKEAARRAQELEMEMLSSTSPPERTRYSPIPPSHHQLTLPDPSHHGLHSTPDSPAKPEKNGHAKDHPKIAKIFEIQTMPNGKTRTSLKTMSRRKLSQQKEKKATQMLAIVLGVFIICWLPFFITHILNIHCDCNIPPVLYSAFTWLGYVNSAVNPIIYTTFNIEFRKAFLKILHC
# protocol.notes: D2S receptor functional assay (cAMP assay, antagonist)
# test.conditions: antagonist activity, CHO-K1/D2 cells, read-out: D2SR, IC50
readout.kind: pIC50
One number for each entry, as −log10 of the molar value.

Lookup: # return recorded pIC50 for input `O=C1CCc2cc(OCCCN3CCC(c4noc5cc(F)ccc45)CC3)cc3c2N1CC3`
Found: 7.93

---

# target: H1 receptor (Homo sapiens)
# Sequence (P35367 whole entry): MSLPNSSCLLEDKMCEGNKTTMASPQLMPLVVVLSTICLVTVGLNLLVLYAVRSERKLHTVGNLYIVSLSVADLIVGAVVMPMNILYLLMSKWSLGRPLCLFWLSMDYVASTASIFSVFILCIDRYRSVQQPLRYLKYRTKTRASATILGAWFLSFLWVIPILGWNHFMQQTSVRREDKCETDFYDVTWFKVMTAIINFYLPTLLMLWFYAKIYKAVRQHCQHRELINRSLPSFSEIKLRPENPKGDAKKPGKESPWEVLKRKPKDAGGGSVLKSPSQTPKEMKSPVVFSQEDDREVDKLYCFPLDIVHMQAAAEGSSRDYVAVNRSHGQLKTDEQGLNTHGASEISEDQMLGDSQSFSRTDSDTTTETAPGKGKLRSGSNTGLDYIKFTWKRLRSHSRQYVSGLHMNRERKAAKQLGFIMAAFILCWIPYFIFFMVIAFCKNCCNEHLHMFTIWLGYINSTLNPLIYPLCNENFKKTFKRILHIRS
# protocol.notes: H1 receptor functional assay (calcium flow, FLIPR)
# test.conditions: HEK293/H1 cells, read-out: H1R, IC50
readout.kind: IC50 (nM)
Numbers only, in nM.

Lookup: Enter measured IC50, system H1 receptor (Homo sapiens), for the compound shown: `O=C1CCc2cc(OCCCN3CCC(c4noc5cc(F)ccc45)CC3)cc3c2N1CC3`
Found: 126

---

# target: 5-HT7 receptor (Homo sapiens, UniProt P34969)
# Sequence (P34969 whole entry): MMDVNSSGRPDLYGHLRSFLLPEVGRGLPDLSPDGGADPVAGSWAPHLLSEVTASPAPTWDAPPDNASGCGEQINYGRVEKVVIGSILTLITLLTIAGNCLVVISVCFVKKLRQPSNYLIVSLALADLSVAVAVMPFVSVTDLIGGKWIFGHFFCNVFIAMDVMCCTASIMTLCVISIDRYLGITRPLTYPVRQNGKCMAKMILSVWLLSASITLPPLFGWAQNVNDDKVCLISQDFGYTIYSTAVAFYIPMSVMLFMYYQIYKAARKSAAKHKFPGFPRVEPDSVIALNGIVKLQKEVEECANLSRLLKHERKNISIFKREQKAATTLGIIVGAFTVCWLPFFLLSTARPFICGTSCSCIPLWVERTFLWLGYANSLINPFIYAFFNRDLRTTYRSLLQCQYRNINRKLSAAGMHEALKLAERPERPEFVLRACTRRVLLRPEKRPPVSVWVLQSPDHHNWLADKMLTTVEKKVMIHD
# protocol.notes: 5-HT7 receptor functional assay (Bright-Glo Luciferase assay system)
# test.conditions: HEK293/5-HT7 cells, read-out: 5HT7R, IC50
readout.kind: pIC50
Answers are plain numbers, as −log10 of the molar value.

Lookup: # return recorded pIC50 for input `O=C1CCc2cc(OCCCN3CCC(c4noc5cc(F)ccc45)CC3)cc3c2N1CC3`
Found: 5.26

---

# target: Alpha2A receptor (Homo sapiens, UniProt P08913)
# Sequence (P08913 whole entry): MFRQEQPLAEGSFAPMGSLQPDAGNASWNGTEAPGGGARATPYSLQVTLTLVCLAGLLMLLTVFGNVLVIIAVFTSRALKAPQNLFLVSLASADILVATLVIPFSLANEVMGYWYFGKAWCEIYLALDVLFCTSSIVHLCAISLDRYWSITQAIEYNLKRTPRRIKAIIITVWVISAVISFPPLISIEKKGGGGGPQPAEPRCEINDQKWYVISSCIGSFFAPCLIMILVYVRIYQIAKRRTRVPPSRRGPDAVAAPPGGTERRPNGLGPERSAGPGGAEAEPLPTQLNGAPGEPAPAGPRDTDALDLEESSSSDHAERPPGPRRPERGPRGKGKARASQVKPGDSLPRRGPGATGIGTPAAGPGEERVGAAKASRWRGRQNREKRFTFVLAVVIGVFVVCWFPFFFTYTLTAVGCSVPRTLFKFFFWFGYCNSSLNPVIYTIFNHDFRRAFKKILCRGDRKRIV
# protocol.notes: Alpha2A receptor functional assay (cAMP assay)
# test.conditions: HEK293/Alpha2A cells, read-out: Alpha2AR, IC50
readout.kind: pIC50
One number for each entry, as −log10 of the molar value.

Lookup: # return recorded pIC50 for input `O=C1CCc2cc(OCCCN3CCC(c4noc5cc(F)ccc45)CC3)cc3c2N1CC3`
Found: 6.50

---

# protocol.notes: Pharmacokinetics assay in rats
# Assay type: in vivo, male SD rats
# test.conditions: rat, plasma; oral, 10 mg/kg, male SD rats
readout.kind: Cmax (ng/mL)
Numbers only, in ng/mL.

Lookup: # return recorded Cmax for input O=C1CCc2cc(OCCCN3CCC(c4noc5cc(F)ccc45)CC3)cc3c2N1CC3 [NH300094]
Found: 8710

---

# target: 5-HT1A receptor (Homo sapiens, UniProt P08908)
# Sequence (P08908 whole entry): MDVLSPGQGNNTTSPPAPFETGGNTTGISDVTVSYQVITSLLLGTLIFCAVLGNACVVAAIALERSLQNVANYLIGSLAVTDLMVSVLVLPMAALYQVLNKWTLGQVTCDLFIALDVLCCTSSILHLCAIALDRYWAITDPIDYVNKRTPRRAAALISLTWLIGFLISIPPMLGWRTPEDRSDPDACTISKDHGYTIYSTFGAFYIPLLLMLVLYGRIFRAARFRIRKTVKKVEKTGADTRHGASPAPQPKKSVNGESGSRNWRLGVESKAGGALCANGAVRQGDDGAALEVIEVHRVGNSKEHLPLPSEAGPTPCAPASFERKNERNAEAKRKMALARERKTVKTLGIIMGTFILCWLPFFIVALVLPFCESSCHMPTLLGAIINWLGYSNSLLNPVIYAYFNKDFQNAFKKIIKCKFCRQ
# protocol.notes: 5-HT1A receptor functional assay (cAMP assay, antagonist)
# Type: cell-based
# test.conditions: antagonist activity, CHO-K1/5-HT1A cells, read-out: 5HT1AR, IC50
readout.kind: pIC50
Numbers only, as −log10 of the molar value.

Lookup: # return recorded pIC50 for input O=C1CCc2cc(OCCCN3CCC(c4noc5cc(F)ccc45)CC3)cc3c2N1CC3 [NH300094]
Found: 7.07

---

Answer each item with its documented pIC50.
# target: 5-HT2C receptor (Homo sapiens, UniProt P28335)
# Sequence (P28335 33-458): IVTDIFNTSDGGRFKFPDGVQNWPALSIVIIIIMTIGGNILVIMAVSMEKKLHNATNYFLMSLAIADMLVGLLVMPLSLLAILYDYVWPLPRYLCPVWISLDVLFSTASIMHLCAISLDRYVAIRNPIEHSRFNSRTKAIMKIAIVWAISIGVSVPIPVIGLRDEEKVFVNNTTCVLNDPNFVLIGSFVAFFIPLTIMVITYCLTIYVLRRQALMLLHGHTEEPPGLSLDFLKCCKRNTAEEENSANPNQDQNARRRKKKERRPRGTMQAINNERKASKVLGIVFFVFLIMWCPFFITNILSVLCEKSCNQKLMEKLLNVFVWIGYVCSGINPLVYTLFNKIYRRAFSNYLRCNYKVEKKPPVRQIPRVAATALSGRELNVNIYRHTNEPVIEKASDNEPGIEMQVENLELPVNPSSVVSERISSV
# protocol.notes: 5-HT2C receptor functional assay (calcium flow, FLIPR)
# test.conditions: HEK293/5-HT2C cells, read-out: 5HT2cR, IC50
Numbers only, as −log10 of the molar value.

- CSc1ccc2c(c1)C(N1CCN(C)CC1)Cc1ccccc1S2 (centres unmarked) [Methiothepin, reference compound]: 7.40

Let us move to another entry and its pIC50.
Lookup: Enter measured pIC50, system 5-HT2C receptor (Homo sapiens, UniProt P28335), for the compound shown: O=C1CCc2cc(OCCCN3CCC(c4noc5cc(F)ccc45)CC3)cc3c2N1CC3 [NH300094]
Found: 5.52

---

# protocol.notes: Pharmacokinetics assay in rats
# Type: in vivo, male SD rats
# test.conditions: rat, plasma; intravenous, 2 mg/kg, male SD rats; read-out: Vdss
readout.kind: Vd
Don't forget the unit after the number, please.

Lookup: # return recorded Vd for input O=C1CCc2cc(OCCCN3CCC(c4noc5cc(F)ccc45)CC3)cc3c2N1CC3 [NH300094]
Found: 0.379 L/kg

Recorded values, source paper PMC10848157.
